The measurements presented in this section are drawn from patent US12351556B2.

Reported IC50 values are given for each entry in this list.
# TARGET OR TEST SYSTEM: p38α MAPK (Homo sapiens (Human), UniProt Q16539)
# Sequence (Q16539 whole entry): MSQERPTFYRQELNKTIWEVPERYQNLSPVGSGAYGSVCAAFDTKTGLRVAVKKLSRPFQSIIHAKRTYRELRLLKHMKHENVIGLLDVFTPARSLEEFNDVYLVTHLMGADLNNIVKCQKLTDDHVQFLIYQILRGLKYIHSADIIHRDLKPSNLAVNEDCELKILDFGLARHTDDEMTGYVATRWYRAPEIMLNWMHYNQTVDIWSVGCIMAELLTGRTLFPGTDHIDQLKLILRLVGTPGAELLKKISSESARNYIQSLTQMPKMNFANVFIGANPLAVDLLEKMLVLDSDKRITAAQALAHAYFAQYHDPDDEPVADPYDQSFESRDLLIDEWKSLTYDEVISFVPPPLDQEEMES
# MEASUREMENT DESCRIPTION: p38 alpha IC50
# Assay type: biochemical
# EXPERIMENTAL PARAMETERS: read-out: IC50 toward p38α MAPK
ASSAY METRIC: IC50 (µM)

- SMILES DATA: "O=c1[nH]cc(Nc2ccccc2)cc1-c1cccc2[nH]ccc12"
  ASSAY METRIC: "IC50"
  READOUT VALUE: 3
- SMILES DATA: "O=c1[nH]cc(Nc2ccccc2)cc1-c1ccccc1Br"
  ASSAY METRIC: "IC50"
  READOUT VALUE: 1.5

---

# TARGET OR TEST SYSTEM: p38α MAPK (Homo sapiens (Human), UniProt Q16539)
# MEASUREMENT DESCRIPTION: p38 alpha IC50
# Format: biochemical
# EXPERIMENTAL PARAMETERS: p38 alpha; read-out: Mean IC50
pIC50: −log10 of the molar value.
Entry flag: T if pIC50 reaches 6; F if it does not.

- SMILES DATA: "O=c1[nH]cc(Nc2ccccc2)cc1-c1cccc2[nH]ccc12"
  DISCRETE LABEL: "F"
- SMILES DATA: "COc1cccc(Nc2c[nH]c(=O)c(-c3cccc4[nH]ccc34)c2)c1"
  DISCRETE LABEL: "F"
- SMILES DATA: "COc1ccccc1Nc1c[nH]c(=O)c(-c2cccc3[nH]ccc23)c1"
  DISCRETE LABEL: "F"
- SMILES DATA: "O=c1[nH]cc(Nc2ccccc2Br)cc1-c1cccc2[nH]ccc12"
  DISCRETE LABEL: "F"
- SMILES DATA: "O=c1[nH]cc(Nc2ccccc2F)cc1-c1cccc2[nH]ccc12"
  DISCRETE LABEL: "T"
- SMILES DATA: "COc1ccc(Nc2c[nH]c(=O)c(-c3cccc4[nH]ccc34)c2)cc1"
  DISCRETE LABEL: "F"
- SMILES DATA: "O=c1[nH]cc(Nc2ccc(Br)cc2)cc1-c1cccc2[nH]ccc12"
  DISCRETE LABEL: "F"
- SMILES DATA: "O=c1[nH]cc(Nc2ccc(F)cc2)cc1-c1cccc2[nH]ccc12"
  DISCRETE LABEL: "T"

---

# TARGET OR TEST SYSTEM: p38α MAPK (Homo sapiens (Human))
# MEASUREMENT DESCRIPTION: p38 alpha IC50
# Type: biochemical
# EXPERIMENTAL PARAMETERS: p38 alpha; read-out: Mean IC50
Sorting guide: entries reporting IC50 beneath 1 µM go in the class 1 pile, the rest go in the class 0 pile.

- COMPOUND: "O=c1[nH]cc(Nc2cccc(O)c2)cc1-c1cccc2[nH]ccc12 [Compound 134]"
  DISCRETE LABEL: "class 0"
- COMPOUND: "Cc1ccccc1Nc1c[nH]c(=O)c(-c2cccc3[nH]ccc23)c1 [Compound 130]"
  DISCRETE LABEL: "class 0"
- COMPOUND: "O=c1[nH]cc(Nc2cccc(Br)c2)cc1-c1cccc2[nH]ccc12 [Compound 142]"
  DISCRETE LABEL: "class 1"
- COMPOUND: "O=c1[nH]cc(Nc2cccc(F)c2)cc1-c1cccc2[nH]ccc12 [Compound 119]"
  DISCRETE LABEL: "class 0"
- COMPOUND: "O=c1[nH]cc(Nc2ccccc2)cc1-c1ccccc1Br [Compound 69]"
  DISCRETE LABEL: "class 0"
